target: 15-PGDH (Homo sapiens)
Sequence (P15428 whole entry): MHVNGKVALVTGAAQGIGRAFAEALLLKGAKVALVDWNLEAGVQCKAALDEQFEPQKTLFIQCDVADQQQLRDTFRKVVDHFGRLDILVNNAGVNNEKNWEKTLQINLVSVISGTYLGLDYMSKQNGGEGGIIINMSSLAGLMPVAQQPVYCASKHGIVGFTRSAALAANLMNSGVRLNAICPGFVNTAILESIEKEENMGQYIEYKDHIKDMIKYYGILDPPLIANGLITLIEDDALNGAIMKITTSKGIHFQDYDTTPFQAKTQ
measurement_label: IC50

compound	IC50
CSCCC(=O)NCc1ccco1	9.8 µM
CCCCCCNC(=O)CCSC [Example 4, N-hexyl-3-(methylsulfanyl)propanamide]	12 µM
CSCCC(=O)NC(C)c1ccccc1 (centres unmarked)	14.7 µM

Please state IC50 for every compound in the list that follows.
1. COc1ccc(CNC(=O)CCSC)cc1
2. CSCCC(=O)NC1CCC1

[reply]
["6 µM", "47 µM"]

src = patent US20080025940A1
